Catalogue of sequences with associated soluble fraction (log2)
procedure_summary: soluble fraction after stress (log2 fold change); higher = more stays soluble; pooled small domains, quantitative proteomics
experimental_context: stress: pH 4
metric: soluble fraction (log2)

1. HMRRISLEDWQLIESLIRRDWSPEQISLWLKKYKKIRVSHEWIYQYILKDKSKAGDLHTHLRSR; -0.419
2. HMQEPNYQPLMQNIKSQDLEEVTRLLSLNDVKFKIDHRTGLLLVESSRVYEAKMKLAATGITD; -1.15
3. HMGTRHPLPYAYARANTVLLEDDGDRLVLWAPENVSLTALGEVLRRFDVDALERESSSTLANRIAVAYAG; -0.896
4. HMNTPNYDVLYRGLADADAGQIMEALQKSNIPFKVDSHSGVLLVPADQVHEARLKLASQGLPRG; 0.00323

Entry source: the domain aggregation screens of Martell et al. (2025)
